Source listed as patent US20200377593A1.

Molecular target: T1, human CD47 overexpressed on CHO cells (human, UniProt Q08722 19-292)
T1 construct: CHO cells transfected with pCHO1.0 carrying human CD47 cDNA (Sino Biological); also called hCD47; CHO-hCD47 cells
Test: flow cytometry on CHO-hCD47 cells, PE anti-human IgG, MFI curve
measurement-kind: EC50 (nM)
Write the number in nM without appending the unit.

Supply measured EC50 of ADI-29347 (antibody, human IgG1, kappa, V domains shown, Full-length IgG1 kappa expressed in yeast, purified by Protein A) VH: QVQLQESGPGLVKPSETLSLTCTVSGGSIANYYWSWIRQPPGKGLEWIGYTYFSGSTNYNPSLKSRVTISVDTSKNQFSLKLSSVTAADTAVYYCARGKTGSAAWGQGTLVTVSS VL: DIQMTQSPSSVSASVGDRVTITCRASQGISRWLAWYQQKPGKAPKLLIYAASSLQSGVPSRFSGSGSGTDFTLTISSLQPEDFATYYCQQTVSFPITFGGGTKVEIKR in your reply. 1.81
